- assayMethodText: Cycloheximide Counterscreen for Small Molecule Inhibitors of Shiga Toxin; note: read at 38.3 µM for the half of the compounds with a filed dose
- conditionDetails: cell reporter, cycloheximide protein synthesis inhibition counterscreen; active compounds read high
About 37,000 (12%) of roughly 300,000 compounds were called active. Only a selection was taken, and actives are over-represented in it overall.
Hi there, I'd appreciate the recorded max response for every entry that follows.
Answers are plain numbers, in %.

Check out these entries, answers already filled in.
Cc1ccsc1C(=O)N/N=C/c1ccc([N+](=O)[O-])cc1 | 55
Nc1nonc1-n1nnc(C(=O)N/N=C/c2c[nH]c3ccccc23)c1-c1ccccc1 | 6.03

Go through the items and report each one's max response.
1. CCOC(=O)c1ccc(NC(=O)c2nc[nH]c2C(=O)N[C@@H](CCCCNC(=O)OC(C)(C)C)C(=O)OC(C)(C)C)cc1
2. O=C(N/N=C/c1c[nH]c2ccccc12)c1cc2ccccc2o1
3. CCCCCC(=O)Nc1ccc(C(=O)N/N=C/c2ccc([N+](=O)[O-])cc2)cc1

1: -6.86; 2: 22.4; 3: -2.53

###

- assayMethodText: Cycloheximide Counterscreen for Small Molecule Inhibitors of Shiga Toxin; note: read at 38.3 µM for the half of the compounds with a filed dose
- conditionDetails: cell reporter, cycloheximide protein synthesis inhibition counterscreen
Out of some 300,000 compounds screened, about 37,000 (12%) were called active. Rule as the data show it: active = max response mostly above about 13% (no sharp cut-off); inactive = mostly below about 14%. This is one part of a sample in which actives are shown more often than they occur.
Result category, one only: 1 (yes) = active, 0 (no) = inactive

// param item: Cc1ccc(S(=O)(=O)c2c[nH]c3ccc(Cl)cc3c2=O)cc1 ; yields the recorded call
0 (no)

Test call, this compound: O=C(c1ccc2nc(N3CCOCC3)sc2c1)N1CCN(c2ccc(Cl)cc2)CC1
0 (no)

GET /call?item= COc1cc(NC(=O)c2ccc(-c3csc(C)n3)cc2)c(OC)cc1Cl returns the recorded outcome of this test.
0 (no)

Hi team, can someone confirm the assay call for Cc1nc2ccc(C(=O)N3CCSCC3)cc2s1 ?
1 (yes)

Can you look up the reported call for Cc1nc2ccc(C(=O)N3CCN(c4ccccc4)CC3)cc2s1 for me?
0 (no)

Look up the recorded call for CC[C@H](C)[C@H](NC(=O)[C@H](Cc1ccc(O)cc1)NC(=O)[C@@H](NC(=O)[C@H](CCCN=C(N)N)NC(=O)[C@@H](N)CC(=O)O)C(C)C)C(=O)N[C@@H](Cc1cnc[nH]1)C(=O)N1CCC[C@H]1C(=O)N[C@@H](Cc1ccccc1)C(=O)O in this test.
0 (no)

Any idea what this test logged for Cc1cc(S(=O)(=O)NC2CCCC2)ccc1-n1cnnn1 ?
0 (no)

Returns: the outcome recorded for C=CCOC(=O)C(=C)C in this assay.
0 (no)

Recorded test call requested for CCOC(=O)c1c(S(=O)(=O)Nc2ccc(CN3CCC(C)CC3)cc2)c(C)n(C)c1C
0 (no)

###

Would you kindly list max response for each of these compounds?
- assayMethodText: Cycloheximide Counterscreen for Small Molecule Inhibitors of Shiga Toxin; note: read at 38.3 µM for the half of the compounds with a filed dose
- conditionDetails: cell reporter, cycloheximide protein synthesis inhibition counterscreen; active compounds read high
About 37,000 (12%) of roughly 300,000 compounds were called active. The sample holds actives, similar compounds and a random draw of the others, so the mix is not that of the screen.
Numbers only, in %.

Below, 8 compounds whose answers are already recorded.
O=C(Nc1cnccn1)c1cccnc1 | -3.29
O=C(Nc1ccc(S(=O)(=O)Nc2ncccn2)cc1)C12CC3CC(CC(C3)C1)C2 | 1.99
COCCN(Cc1cc2cc3c(cc2nc1Cl)OCO3)C(=O)c1cccc(C)c1 | 5.64
COc1cc(/C=C(/NC(=O)c2ccccc2)C(=O)Nc2cccc(O)c2)c([N+](=O)[O-])cc1OC | -3.43
Cc1cc(F)ccc1S(=O)(=O)N1CCCOC1CNC(=O)C(=O)NCCC1=CCCCC1 (stereo not given) | -4.9
O=C(c1ccc(S(=O)(=O)N2CCCC2)cc1)N1CCN(c2ccccc2F)CC1 | -1.05
Cc1cc(OC(=O)c2c(Cl)cccc2Cl)nc(C)n1 | -0.567
COc1ccccc1NC(=O)c1ccc2nc(N3C(=O)CCC3=O)sc2c1 | 7.91

Would you be so kind as to report max response for each listed record?
1. C=CCn1c(CSc2nc3ccccc3s2)nnc1SCC(=O)NCc1ccco1
2. Cc1c(NC(=O)CCCOc2ccccc2)cccc1[N+](=O)[O-]
3. O=C(CN1CCN(c2ccc(O)cc2)CC1)NC1CCCc2ccccc21 (stereo not given)
4. COc1ccc2c(c1)c1nc3n(c(=O)c1n2CC(=O)Nc1ccccc1)CCS3
5. CCc1nn(CCCC(=O)Nc2ccc(C)c(C)c2)c(=O)c2cc3occc3n12

1. 0.347
2. 6.53
3. -4.39
4. -2.14
5. 0.415
